Data provenance is patent US12239645B2.

- assay-overview: Multiple ascending dose (MAD) study: multiple-dose pharmacokinetics
- Format: in vivo, human
- run-parameters: human, plasma, oral; 200 mg BID, all 0 hr (morning) troughs; read-out: Mean C(0), steady-state trough

compound	C0 at 0 hr / ng/mL
CC(=O)c1nn(CC(=O)N2[C@H](C(=O)Nc3nc(Br)ccc3C)C[C@@]3(C)C[C@@H]23)c2ccc(-c3cnc(C)nc3)cc12 [Compound 1]	392

* * *

- assay-overview: Multiple ascending dose (MAD) study: multiple-dose pharmacokinetics
- Type: in vivo, human
- run-parameters: human, plasma, oral, 120 mg, 120 mg BID × 14 Days, Day 14; read-out: Cmax, Mean

molecule	reading-unit	Cmax
CC(=O)c1nn(CC(=O)N2[C@H](C(=O)Nc3nc(Br)ccc3C)C[C@@]3(C)C[C@@H]23)c2ccc(-c3cnc(C)nc3)cc12 [Compound 1]	ng/mL	887
